- Target of assay: furin, P09958;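 note: purified furin at 1:10 enzyme:substrate in 50 mM HEPES pH 7.5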
- Sequence (P09958 whole entry): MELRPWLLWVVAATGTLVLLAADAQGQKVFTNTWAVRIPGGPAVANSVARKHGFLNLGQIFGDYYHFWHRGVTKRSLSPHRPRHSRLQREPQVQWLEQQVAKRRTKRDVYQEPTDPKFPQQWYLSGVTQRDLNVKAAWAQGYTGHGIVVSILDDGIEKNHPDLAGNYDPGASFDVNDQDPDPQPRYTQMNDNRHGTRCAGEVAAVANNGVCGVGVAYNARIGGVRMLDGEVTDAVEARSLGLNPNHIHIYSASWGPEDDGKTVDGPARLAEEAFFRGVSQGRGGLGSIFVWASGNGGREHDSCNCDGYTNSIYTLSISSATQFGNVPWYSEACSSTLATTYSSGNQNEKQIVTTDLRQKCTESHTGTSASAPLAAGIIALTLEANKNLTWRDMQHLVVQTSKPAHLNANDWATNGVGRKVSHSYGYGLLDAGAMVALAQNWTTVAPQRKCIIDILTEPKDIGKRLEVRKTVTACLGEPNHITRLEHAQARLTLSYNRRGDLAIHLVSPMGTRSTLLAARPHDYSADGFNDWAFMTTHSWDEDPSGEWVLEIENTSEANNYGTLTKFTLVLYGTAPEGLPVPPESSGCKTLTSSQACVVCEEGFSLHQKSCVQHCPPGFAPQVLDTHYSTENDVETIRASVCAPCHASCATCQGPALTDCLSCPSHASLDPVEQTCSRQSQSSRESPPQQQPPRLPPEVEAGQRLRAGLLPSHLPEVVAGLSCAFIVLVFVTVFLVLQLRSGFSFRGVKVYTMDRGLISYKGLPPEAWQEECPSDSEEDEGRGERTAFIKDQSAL
- Procedure text: furin cleavage Z-score vs untreated control; higher = more cleavage, active = 3.5 or more, inactive = 1 or less, 8 variable residues between constant flanks
- Condition context: 15 min
Some of the results follow. The true hit rate is not given.
Your answer must be one of the following: active, inactive

Hello, I am checking results. What call was entered for CARNKRNSKMAGNASASA [FU4] ?
active

Okay, and CAGLQDCTMLAGNASASA [HC1524] ?
inactive

Param item: CAEMVTSTWVAGNASASA [HC2166]
inactive

// next record CAEVPCHRPWAGNASASA [HC2408]
inactive

Quick one: CADIYHSVSHAGNASASA [HC1650]
inactive

Same question for CARAKRSPKHAGNASASA [FS-2639] please.
active

Proceed to CATLTCGFADAGNASASA [HC223]
inactive

Now give it for CARNKRLSISAGNASASA [FS-3007] too.
inactive

Then what about the sequence CANLVYSTTSAGNASASA [HC1388] ?
inactive

Input CAWRLLAPITAGNASASA [HC672]
inactive

Follow-up entry: CARNKRNSKMAGNASASA [FS-2397]
active

Then CARNKRQSKSAGNASASA [FS-3009] ?
active

Another: CAVVWCSMSYAGNASASA [HC2028]
inactive

How about this sequence: CARAPRSVGGAGNASASA [FS-1886]
inactive

Entry source: the supplement of paper PMC3545927
